Values from paper PMC6615261

system: E. coli ST131; conditions: MIC of azithromycin combined with the labelled peptidomimetic
Measured Property: Antibiotic MIC in combination (AZM) (µg/mL)

Smiles Repr | Recorded Result
COCCOCCOCC(=O)N[C@@H](CCCCN)C(=O)N(CCC(=O)N[C@@H](CCCCNC(=N)N)C(=O)N(CCC(=O)N[C@@H](CCCCN)C(=O)N(CCC(=O)N[C@@H](CCCCNC(=N)N)C(=O)N(CCC(=O)N[C@@H](CCCCN)C(=O)N(CCC(=O)N[C@@H](CCCCNC(=N)N)C(=O)N(CCC(N)=O)[C@@H](C)c1ccccc1)[C@@H](C)c1ccccc1)[C@@H](C)c1ccccc1)[C@@H](C)c1ccccc1)[C@@H](C)c1ccccc1)[C@@H](C)c1ccccc1 | 0.5
CC(=O)N[C@@H](CCCCN)C(=O)N(CCC(=O)N[C@@H](CCCCN)C(=O)N(CCC(=O)N[C@@H](CCCCN)C(=O)N(CCC(=O)N[C@@H](CCCCN)C(=O)N(CCC(=O)N[C@@H](CCCCN)C(=O)N(CCC(=O)N[C@@H](CCCCN)C(=O)N(CCC(N)=O)Cc1ccccc1)Cc1ccccc1)Cc1ccccc1)Cc1ccccc1)Cc1ccccc1)Cc1ccccc1 | 1
NCCCC[C@H](NC(=O)CCN(Cc1ccccc1)C(=O)[C@H](CCCCN)NC(=O)CCN(Cc1ccccc1)C(=O)[C@H](CCCCN)NC(=O)CCN(Cc1ccccc1)C(=O)[C@H](CCCCN)NC(=O)CCN(Cc1ccccc1)C(=O)[C@H](CCCCN)NC(=O)CCN(Cc1ccccc1)C(=O)[C@H](CCCCN)NC(=O)CCN(Cc1ccccc1)C(=O)[C@H](CCCCN)NC(=O)CCN(Cc1ccccc1)C(=O)[C@@H](N)CCCCN)C(=O)N(CCC(N)=O)Cc1ccccc1 | 1
CC(=O)N[C@@H](CCCCN)C(=O)N(CCC(=O)N[C@@H](CCCCN)C(=O)N(CCC(=O)N[C@@H](CCCCN)C(=O)N(CCC(=O)N[C@@H](CCCCN)C(=O)N(CCC(=O)N[C@@H](CCCCN)C(=O)N(CCC(=O)N[C@@H](CCCCN)C(=O)N(CCC(=O)N[C@@H](CCCCN)C(=O)N(CCC(=O)N[C@@H](CCCCN)C(=O)N(CCC(N)=O)Cc1ccccc1)Cc1ccccc1)Cc1ccccc1)Cc1ccccc1)Cc1ccccc1)Cc1ccccc1)Cc1ccccc1)Cc1ccccc1 | 1
C[C@@H](c1ccccc1)N(CCC(N)=O)C(=O)[C@H](CCCCNC(=N)N)NC(=O)CCN(C(=O)[C@H](CCCCN)NC(=O)CCN(C(=O)[C@H](CCCCNC(=N)N)NC(=O)CCN(C(=O)[C@H](CCCCN)NC(=O)CCN(C(=O)[C@H](CCCCNC(=N)N)NC(=O)CCN(C(=O)[C@H](CCCCN)NC(=O)CNCCN)[C@@H](C)c1ccccc1)[C@@H](C)c1ccccc1)[C@@H](C)c1ccccc1)[C@@H](C)c1ccccc1)[C@@H](C)c1ccccc1 | 0.5
C[C@@H](c1ccccc1)N(CCC(N)=O)C(=O)[C@H](CCCCNC(=N)N)NC(=O)CCN(C(=O)[C@H](CCCCN)NC(=O)CCN(C(=O)[C@H](CCCCNC(=N)N)NC(=O)CCN(C(=O)[C@H](CCCCN)NC(=O)CCN(C(=O)[C@H](CCCCNC(=N)N)NC(=O)CCN(C(=O)[C@H](CCCCN)NC(=O)CNCCCNCCCCNCCCN)[C@@H](C)c1ccccc1)[C@@H](C)c1ccccc1)[C@@H](C)c1ccccc1)[C@@H](C)c1ccccc1)[C@@H](C)c1ccccc1 | 1
